Where do these numbers come from? They come from patent US4533662A.

For each record, write down the corresponding Minimum toxic dose in mice.
Tested on: mice
Experiment: Determination of the minimum toxic dose in mice
Type: in vivo, male mice
Conditions: p.o., observed 3 hours, deaths and symptoms up to 24 hours; maximum dose 300 mg./kg.
Structures can show the parent of a compound that is named as a salt.

Query block: Supply measured Minimum toxic dose in mice of CN1c2ccccc2C(c2ccccc2F)=NCC1CNC(=O)c1ccc(C#N)cc1 (centres unmarked) in your reply.
Result block: 300 mg/kg

Query block: Output measured Minimum toxic dose in mice for this item: COc1ccc2c(c1)N(C)C(CNC(=O)c1ccccc1)CN=C2c1ccc(Cl)cc1Cl (centres unmarked)
Result block: 10 mg/kg

Query block: Please report the measured Minimum toxic dose in mice for CN1c2ccccc2C(c2ccccc2)=NCC1CNC(=O)c1ccc(Cl)cc1Cl (centres unmarked)
Result block: > 300 mg/kg

Query block: Indicate its recorded Minimum toxic dose in mice; the molecule in question is CN1c2ccccc2C(c2ccccc2)=NCC1CNC(=O)c1ccccc1 (centres unmarked)
Result block: > 300 mg/kg

Query block: Report measured Minimum toxic dose in mice; entry is COc1ccc(C(=O)NCC2CN=C(c3ccccc3)c3ccccc3N2C)cc1 (centres unmarked)
Result block: 300 mg/kg

Query block: Fill in reported Minimum toxic dose in mice for this entry: COc1ccc2c(c1)N(C)C(CNC(=O)c1ccccc1)CN=C2c1ccccc1F (centres unmarked)
Result block: 300 mg/kg

Query block: Report Minimum toxic dose in mice, nothing else, for this molecule: COc1ccc(C(=O)NCC2CN=C(c3ccccc3F)c3ccccc3N2C)cc1 (centres unmarked)
Result block: 300 mg/kg

Query block: Kindly indicate its recorded Minimum toxic dose in mice. Item: COc1ccc(C(=O)NCC2CN=C(c3ccc(F)cc3)c3ccccc3N2C)cc1 (centres unmarked)
Result block: > 300 mg/kg

Query block: Indicate the recorded Minimum toxic dose in mice value for this molecule: COc1ccc(CC(=O)NCC2CN=C(c3ccccc3)c3cc(Cl)ccc3N2C)cc1OC (centres unmarked)
Result block: 50 mg/kg

Query block: For Cc1ccc2c(c1)C(c1ccccc1F)=NCC(CNC(=O)c1ccccc1)N2C (centres unmarked) , write its Minimum toxic dose in mice.
Result block: > 300 mg/kg

Query block: Give the measured Minimum toxic dose in mice for CN1c2ccccc2C(c2ccccc2)=NCC1CNC(=O)c1ccc(Cl)c(Cl)c1 (centres unmarked) [Example 19, hydrochloride]
Result block: > 300 mg/kg

Query block: For COc1ccc2c(c1)N(C)C(CNC(=O)c1ccccc1)CN=C2c1cccc(F)c1 (centres unmarked) , write its Minimum toxic dose in mice.
Result block: 300 mg/kg

Query block: Give the reported Minimum toxic dose in mice for this molecule. COc1ccc(CC(=O)NCC2CN=C(c3ccccc3)c3cc4c(cc3N2C)OCO4)cc1OC (centres unmarked)
Result block: 100 mg/kg

Query block: // fetch Minimum toxic dose in mice given entry CN1c2cc(F)ccc2C(c2ccccc2)=NCC1CNC(=O)c1ccccc1 (centres unmarked)
Result block: 300 mg/kg

Query block: Input COc1cccc(C(=O)NCC2CN=C(c3ccccc3F)c3ccccc3N2C)c1 (centres unmarked) , output reported Minimum toxic dose in mice.
Result block: > 300 mg/kg

Query block: Specify reported Minimum toxic dose in mice for the molecule shown: CN1c2ccccc2C(c2ccccc2)=NCC1CNC(=O)c1ccc([N+](=O)[O-])cc1 (centres unmarked)
Result block: > 300 mg/kg

Query block: Supply recorded Minimum toxic dose in mice for CN1c2ccccc2C(c2ccccc2F)=NCC1CNC(=O)Cc1ccccc1Cl (centres unmarked) here.
Result block: > 300 mg/kg

Query block: Determine from records and report Minimum toxic dose in mice for CN1c2cc3c(cc2C(c2ccccc2)=NCC1CNC(=O)c1ccccc1)OCO3 (centres unmarked)
Result block: 100 mg/kg

Query block: Please look at this molecule and report its Minimum toxic dose in mice: CN1c2ccccc2C(c2ccccc2F)=NCC1CNC(=O)c1ccc(C(F)(F)F)cc1 (centres unmarked)
Result block: > 300 mg/kg

Query block: Look up Minimum toxic dose in mice of COc1ccc2c(c1)N(C)C(CNC(=O)c1ccccc1)CN=C2c1ccc(F)cc1 (centres unmarked) and report it.
Result block: 50 mg/kg
